The reported numbers originate from patent US20180185504A1.

Assay Target: T1, hPRLR.mmh (soluble monomeric human PRLR) (human)
T1 construct: soluble monomeric PRLR protein
T1 chain: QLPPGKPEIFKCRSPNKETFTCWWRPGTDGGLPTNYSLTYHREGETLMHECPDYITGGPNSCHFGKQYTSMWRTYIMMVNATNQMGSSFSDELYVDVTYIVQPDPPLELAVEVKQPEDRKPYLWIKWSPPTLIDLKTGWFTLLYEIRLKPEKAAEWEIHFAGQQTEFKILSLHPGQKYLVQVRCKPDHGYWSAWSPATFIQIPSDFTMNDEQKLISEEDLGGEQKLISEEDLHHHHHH
Assay Protocol: SPR (Biacore), antibody capture, 37 C
Property: koff (s⁻¹)
Write the value in s⁻¹ as a bare number.

I have this binder here, H1H6781P (antibody, human IgG1, V domains shown, human IgG1 Fc (H1H)) VH: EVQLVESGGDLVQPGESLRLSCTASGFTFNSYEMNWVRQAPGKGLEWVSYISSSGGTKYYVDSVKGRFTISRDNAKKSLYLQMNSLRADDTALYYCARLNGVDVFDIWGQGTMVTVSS VL: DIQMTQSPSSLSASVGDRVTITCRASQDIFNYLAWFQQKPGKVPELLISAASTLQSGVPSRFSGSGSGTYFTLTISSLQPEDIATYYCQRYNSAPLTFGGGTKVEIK , and I need its recorded koff.
0.000309

I have this binder here, H1H6792P (antibody, human IgG1, V domains shown, human IgG1 Fc (H1H)) VH: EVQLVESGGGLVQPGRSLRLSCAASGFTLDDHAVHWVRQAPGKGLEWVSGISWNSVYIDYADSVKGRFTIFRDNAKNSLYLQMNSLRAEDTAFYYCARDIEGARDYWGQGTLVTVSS VL: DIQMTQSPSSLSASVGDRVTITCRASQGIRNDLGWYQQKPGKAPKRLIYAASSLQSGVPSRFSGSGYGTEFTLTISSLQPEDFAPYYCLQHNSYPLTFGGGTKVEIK , and I need its recorded koff.
0.00229

I have this binder here, H1H6801P (antibody, human IgG1, V domains shown, human IgG1 Fc (H1H)) VH: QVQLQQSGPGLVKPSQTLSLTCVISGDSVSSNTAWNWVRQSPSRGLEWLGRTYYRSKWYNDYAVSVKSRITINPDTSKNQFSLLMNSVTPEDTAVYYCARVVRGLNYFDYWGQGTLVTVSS VL: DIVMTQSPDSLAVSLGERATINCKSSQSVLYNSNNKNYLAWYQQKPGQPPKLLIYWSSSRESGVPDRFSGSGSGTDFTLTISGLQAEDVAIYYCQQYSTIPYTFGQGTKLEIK , and I need its recorded koff.
0.00441

I have this binder here, H1H6785P (antibody, human IgG1, V domains shown, human IgG1 Fc (H1H)) VH: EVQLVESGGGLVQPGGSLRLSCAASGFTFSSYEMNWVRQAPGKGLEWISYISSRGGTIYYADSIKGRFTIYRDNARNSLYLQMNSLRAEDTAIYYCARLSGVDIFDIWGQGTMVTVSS VL: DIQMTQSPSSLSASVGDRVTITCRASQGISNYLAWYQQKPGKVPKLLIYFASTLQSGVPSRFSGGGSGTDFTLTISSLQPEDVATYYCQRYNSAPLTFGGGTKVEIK , and I need its recorded koff.
0.000484

I have this binder here, H1H6976N (antibody, human IgG1, V domains shown, also called H2M6976N) VH: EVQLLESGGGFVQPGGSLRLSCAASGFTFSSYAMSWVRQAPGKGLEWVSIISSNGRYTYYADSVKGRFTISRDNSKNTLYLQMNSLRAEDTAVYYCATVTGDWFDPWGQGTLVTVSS VL: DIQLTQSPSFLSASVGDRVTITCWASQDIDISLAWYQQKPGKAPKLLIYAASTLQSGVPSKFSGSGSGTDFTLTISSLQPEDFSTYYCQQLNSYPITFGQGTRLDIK , and I need its recorded koff.
0.00314

I have this binder here, H1H6782P (antibody, human IgG1, V domains shown, human IgG1 Fc (H1H)) VH: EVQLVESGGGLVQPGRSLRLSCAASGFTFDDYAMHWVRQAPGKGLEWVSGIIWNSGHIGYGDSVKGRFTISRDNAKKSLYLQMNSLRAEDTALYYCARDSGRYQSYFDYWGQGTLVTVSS VL: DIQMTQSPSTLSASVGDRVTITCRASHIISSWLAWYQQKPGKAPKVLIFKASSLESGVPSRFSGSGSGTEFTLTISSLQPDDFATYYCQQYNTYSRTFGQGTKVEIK , and I need its recorded koff.
0.000716

I have this binder here, H1H6958N2 (antibody, human IgG1, V domains shown, also called H2M6958N2) VH: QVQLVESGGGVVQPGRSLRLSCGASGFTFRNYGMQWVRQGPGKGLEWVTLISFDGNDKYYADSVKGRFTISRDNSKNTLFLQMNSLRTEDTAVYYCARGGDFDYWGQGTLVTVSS VL: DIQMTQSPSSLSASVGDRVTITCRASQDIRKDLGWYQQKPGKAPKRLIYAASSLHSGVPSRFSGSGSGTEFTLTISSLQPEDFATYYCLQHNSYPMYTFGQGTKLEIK , and I need its recorded koff.
0.00131

I have this binder here, H1H6790P (antibody, human IgG1, V domains shown, human IgG1 Fc (H1H)) VH: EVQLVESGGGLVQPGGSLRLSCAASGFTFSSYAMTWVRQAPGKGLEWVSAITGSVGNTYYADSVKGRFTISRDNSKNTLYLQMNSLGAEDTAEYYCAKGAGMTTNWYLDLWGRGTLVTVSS VL: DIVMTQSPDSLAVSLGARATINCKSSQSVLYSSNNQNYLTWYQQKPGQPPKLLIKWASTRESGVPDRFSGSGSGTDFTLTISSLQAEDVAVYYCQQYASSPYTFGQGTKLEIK , and I need its recorded koff.
0.00329
